ASSAYED_TARGET: T1, rat µ opioid receptor (rat, UniProt P33535 1-398)
T1 construct: whole, on cells; membrane preparations of the transfected cells were used; also called rMOR; MOR
T1 sequence (P33535 whole entry): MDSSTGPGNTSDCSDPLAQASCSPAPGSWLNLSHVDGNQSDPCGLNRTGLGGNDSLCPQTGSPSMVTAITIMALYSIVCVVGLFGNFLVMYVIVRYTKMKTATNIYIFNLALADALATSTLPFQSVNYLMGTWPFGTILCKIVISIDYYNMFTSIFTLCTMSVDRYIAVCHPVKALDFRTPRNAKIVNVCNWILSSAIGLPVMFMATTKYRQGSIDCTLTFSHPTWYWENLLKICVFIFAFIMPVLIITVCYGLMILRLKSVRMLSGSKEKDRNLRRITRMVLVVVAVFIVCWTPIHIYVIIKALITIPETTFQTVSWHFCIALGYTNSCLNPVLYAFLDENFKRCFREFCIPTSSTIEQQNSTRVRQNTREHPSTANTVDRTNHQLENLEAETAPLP
METHOD: competition vs [3H]DAMGO, rMOR cell membranes
QUANTITY_MEASURED: Ki (µM)
Please state the figure in µM; there is no need to write the unit.

Please look up its Ki: YXGFXPLW (D-Pen at 2 and Pen at 5 (written X); disulfide 2-5; C-terminal NH-3,5-Bzl(CF3)2 amide, cyclic; also called TY046) [Tyr[DPenGlyPhePen]ProLeuTrpNHBn(CF3)2]
2.33
